- system under test: human recombinant 5-HT2C receptor (Homo sapiens)
- Construct: expressed in transfected cells; host or cells: Jump-In HEK cells (membrane preparation)
- Sequence (P28335 33-458): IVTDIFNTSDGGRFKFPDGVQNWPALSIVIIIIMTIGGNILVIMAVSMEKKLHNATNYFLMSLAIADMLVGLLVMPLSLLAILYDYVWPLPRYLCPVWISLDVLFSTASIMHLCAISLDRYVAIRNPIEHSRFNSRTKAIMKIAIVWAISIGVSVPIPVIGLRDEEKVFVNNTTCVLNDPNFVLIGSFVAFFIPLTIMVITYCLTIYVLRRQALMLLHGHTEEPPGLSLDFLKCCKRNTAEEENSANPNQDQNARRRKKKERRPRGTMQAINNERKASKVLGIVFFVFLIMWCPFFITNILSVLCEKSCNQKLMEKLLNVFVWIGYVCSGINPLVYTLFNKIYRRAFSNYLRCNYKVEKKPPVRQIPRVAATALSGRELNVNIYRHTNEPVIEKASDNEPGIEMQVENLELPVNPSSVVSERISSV
- protocol description: Test Example 2-2: 5-HT2C receptor binding inhibition test ([3H]-Mesulergine; non-specific ligand Ketanserin)
- recorded conditions: non-specific binding with 500 µmol/L Ketanserin, 37°C, 2 hours
pKi: −log10 of the molar value.
endpoint: pKi

In: Endpoint output: pKi of Cn1ncc(Br)c1-c1cc(Nc2ncc(Cl)cc2F)ncc1OCCO [Compound I-155] . Value?
Out: 8.98

a: Cc1cncc(C)c1-c1cc(Nc2ncc(C(F)(F)F)cc2F)ccc1OCCO [Compound I-030]
b: Cc1ncnc(C)c1-c1cc(Nc2ccc(C(F)(F)F)cn2)ccc1OCCO [Compound I-100]
c: Cn1ncc(Br)c1-c1cc(Nc2nc3cc(F)ccc3n2C)ccc1OCCO [Compound I-101]
d: Cn1ncc(Br)c1-c1cc(Nc2nc3ccc(F)cc3s2)ccc1OCCO [Compound I-070]
In: Rank entries according to their pKi, from the largest number down. Note for the reader: the ranking is given by listing the labels in the order requested.
Out: d, a, c, b

Hello, the source for this data is patent EP4631938A1, in case you need it.
